Target: SMARCA4-HiBiT (Homo sapiens)
Construct: SMARCA4-HiBiT knock-in Hela monoclonal cell (CS3023226); host or cells: HeLa monoclonal knock-in line (CRISPR HiBiT knock-in at the endogenous locus, heterozygous)
Sequence (P51532 whole entry): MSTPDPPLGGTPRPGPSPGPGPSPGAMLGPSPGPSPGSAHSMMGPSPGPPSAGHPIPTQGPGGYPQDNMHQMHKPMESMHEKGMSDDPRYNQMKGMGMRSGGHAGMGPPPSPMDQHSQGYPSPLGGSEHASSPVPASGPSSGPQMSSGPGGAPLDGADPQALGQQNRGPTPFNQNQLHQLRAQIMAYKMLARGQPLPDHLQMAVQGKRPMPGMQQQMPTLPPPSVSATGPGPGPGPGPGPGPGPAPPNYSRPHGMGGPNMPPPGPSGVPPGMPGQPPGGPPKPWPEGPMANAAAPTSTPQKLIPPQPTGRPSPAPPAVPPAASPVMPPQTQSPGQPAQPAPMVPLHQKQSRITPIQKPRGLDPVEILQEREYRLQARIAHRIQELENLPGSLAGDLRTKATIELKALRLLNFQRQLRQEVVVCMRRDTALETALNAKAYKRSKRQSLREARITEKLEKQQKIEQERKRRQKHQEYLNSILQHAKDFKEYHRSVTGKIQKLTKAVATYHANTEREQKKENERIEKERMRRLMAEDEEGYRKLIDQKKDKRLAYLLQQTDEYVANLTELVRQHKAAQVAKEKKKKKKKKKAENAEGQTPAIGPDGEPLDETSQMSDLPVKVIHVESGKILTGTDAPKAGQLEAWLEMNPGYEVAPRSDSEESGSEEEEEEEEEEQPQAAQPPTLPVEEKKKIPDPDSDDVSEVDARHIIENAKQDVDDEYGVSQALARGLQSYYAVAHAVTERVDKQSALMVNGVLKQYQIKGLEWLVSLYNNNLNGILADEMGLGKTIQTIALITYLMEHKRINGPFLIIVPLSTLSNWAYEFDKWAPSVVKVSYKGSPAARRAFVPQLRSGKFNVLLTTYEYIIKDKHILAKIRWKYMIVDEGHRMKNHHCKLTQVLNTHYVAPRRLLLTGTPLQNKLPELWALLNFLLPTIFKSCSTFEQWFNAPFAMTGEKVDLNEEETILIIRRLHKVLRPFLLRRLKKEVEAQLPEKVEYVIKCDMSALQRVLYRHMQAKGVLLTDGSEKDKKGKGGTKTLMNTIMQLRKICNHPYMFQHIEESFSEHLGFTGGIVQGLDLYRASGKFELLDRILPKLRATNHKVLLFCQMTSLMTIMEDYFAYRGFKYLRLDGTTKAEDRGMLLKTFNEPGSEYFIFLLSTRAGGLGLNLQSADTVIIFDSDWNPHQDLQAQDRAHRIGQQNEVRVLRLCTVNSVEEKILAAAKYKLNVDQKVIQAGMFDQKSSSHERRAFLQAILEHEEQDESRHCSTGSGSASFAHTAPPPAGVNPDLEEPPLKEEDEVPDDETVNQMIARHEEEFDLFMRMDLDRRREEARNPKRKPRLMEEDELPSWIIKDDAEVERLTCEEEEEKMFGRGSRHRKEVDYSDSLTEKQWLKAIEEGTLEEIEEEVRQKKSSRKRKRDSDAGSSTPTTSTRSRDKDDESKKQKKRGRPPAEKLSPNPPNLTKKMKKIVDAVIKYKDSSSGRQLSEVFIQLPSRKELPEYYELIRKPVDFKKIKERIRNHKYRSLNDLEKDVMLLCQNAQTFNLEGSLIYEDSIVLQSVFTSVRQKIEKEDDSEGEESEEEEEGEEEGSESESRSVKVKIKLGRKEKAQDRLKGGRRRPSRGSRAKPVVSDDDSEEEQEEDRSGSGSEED
Experiment: SMARCA4 HiBiT degradation assay in HeLa cells
Assay type: cell-based
Settings: HeLa, 18 hours incubation, read-out: HeLa-HiBit-SM4 Dmax (%)
Dmax reference

Please list Dmax recorded for the molecule CC1CC(CN2CCC(CN3CCN4c5cc(-c6ccccc6O)nnc5NC[C@H]4C3)CC2)CCN1c1ccc2c(c1)C(=O)N(C1CCC(=O)NC1=O)C2=O (stereo partly shown) > 85%

Indicate the recorded Dmax value for this molecule: CN(CCN1CCC(C(=O)N2CCN3c4cc(-c5ccccc5O)nnc4NC[C@H]3C2)CC1)c1ccc2c(c1)C(=O)N(C1CCC(=O)NC1=O)C2=O (stereo partly shown) ≤ 50%

Look up and state reported Dmax for O=C1CCC(N2Cc3ccc(N4CC(CN5C[C@@H]6[C@H](C5)[C@H]6CN5CCN6c7cc(-c8ccccc8O)nnc7NC[C@H]6C5)C4)cc3C2=O)C(=O)N1 (stereo partly shown) > 85%

Read the entry CC(C)(C)C(=O)OCN1C(=O)CCC(N2C(=O)c3cccc(N4CCC(N5CCC(N6CCN7c8cc(-c9ccccc9O)nnc8NC[C@H]7C6)CC5)CC4)c3C2=O)C1=O (stereo partly shown) and write its reported Dmax. 75 to 85%
